TEST_SYSTEM: androgen receptor (AR) (Homo sapiens)
ASSAY_PROCEDURE: Degradation of androgen receptor (AR) protein in VCaP cells by ELISA
Type: cell-based
RECORDED_CONDITIONS: AR degradation, VCaP cells, 16 h, ELISA, Table 3-1
MEASURED_ENDPOINT: Dmax (%)

MOLECULE	RESULT
N#Cc1ccc(OC2CCC(NC(=O)c3ccc(N4CCC(CN5CCC6(CC5)CN(c5ccc7c(c5)CN(C5CCC(=O)NC5=O)C7=O)C6)CC4)nn3)CC2)cc1Cl (centres unmarked)	++++ (>80%)
CC1(C)[C@H](Oc2ccc(C#N)c(Cl)c2)C(C)(C)[C@H]1N1Cc2nc(C#CC3CCC(N4CC5(CCN(c6cc7c(cc6F)C(=O)N(C6CCC(=O)NC6=O)C7=O)C5)C4)CC3)ccc2C1=O (some centres unmarked) [Compound 371]	++++ (>80%)
N#Cc1ccc(OC2CCC(NC(=O)c3ncn(C4CCC(CN5CCC6(CC5)CN(c5cc7c(cc5F)C(=O)N(C5CCC(=O)NC5=O)C7=O)C6)CC4)n3)CC2)cc1Cl (centres unmarked)	++++ (>80%)

* * *

Please provide measured Dmax for the entries that follow.
TEST_SYSTEM: androgen receptor (AR) (Homo sapiens, UniProt P10275)
Sequence (P10275 whole entry): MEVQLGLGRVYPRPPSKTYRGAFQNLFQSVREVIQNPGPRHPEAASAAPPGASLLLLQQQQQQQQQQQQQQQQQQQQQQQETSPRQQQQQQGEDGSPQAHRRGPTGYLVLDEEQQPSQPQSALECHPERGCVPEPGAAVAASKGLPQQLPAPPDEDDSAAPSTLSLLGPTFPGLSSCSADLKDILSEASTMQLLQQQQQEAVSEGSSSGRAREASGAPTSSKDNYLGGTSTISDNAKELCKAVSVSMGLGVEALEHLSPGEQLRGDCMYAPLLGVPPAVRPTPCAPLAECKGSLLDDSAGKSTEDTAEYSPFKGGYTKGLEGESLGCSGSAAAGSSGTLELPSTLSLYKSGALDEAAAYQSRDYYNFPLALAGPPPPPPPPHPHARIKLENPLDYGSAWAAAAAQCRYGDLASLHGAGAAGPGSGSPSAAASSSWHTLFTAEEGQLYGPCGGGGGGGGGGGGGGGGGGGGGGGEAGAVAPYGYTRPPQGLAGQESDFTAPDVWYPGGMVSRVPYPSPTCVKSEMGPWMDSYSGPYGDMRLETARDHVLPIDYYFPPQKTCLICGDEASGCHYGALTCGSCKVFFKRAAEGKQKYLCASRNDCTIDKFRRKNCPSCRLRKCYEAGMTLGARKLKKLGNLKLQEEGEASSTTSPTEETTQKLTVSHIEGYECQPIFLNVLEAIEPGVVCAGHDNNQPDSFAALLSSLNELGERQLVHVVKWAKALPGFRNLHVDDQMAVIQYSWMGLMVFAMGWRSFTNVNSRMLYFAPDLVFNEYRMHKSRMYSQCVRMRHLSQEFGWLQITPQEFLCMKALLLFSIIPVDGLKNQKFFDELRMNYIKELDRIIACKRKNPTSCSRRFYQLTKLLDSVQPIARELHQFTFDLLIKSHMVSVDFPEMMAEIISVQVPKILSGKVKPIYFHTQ
ASSAY_PROCEDURE: Degradation of androgen receptor (AR) protein in VCaP cells by ELISA
Assay type: cell-based
RECORDED_CONDITIONS: VCaP, AR degradation, VCaP cells, 16 h, ELISA, Table 3-1; read-out: Dmax (%)

For the compound shown here, CC1(C)[C@H](Oc2ccc(C#N)c(Cl)c2)C(C)(C)[C@H]1N1Cc2nc(N3CCC(CN4CCN(c5cc6c(cc5F)C(=O)N(C5CCC(=O)NC5=O)C6=O)CC4)CC3)ncc2C1=O (some centres unmarked) , give the reported Dmax.
> 80%

For the compound shown here, N#Cc1ccc(O[C@H]2CC[C@H](NC(=O)c3ccc(N4CC5(CN(C[C@@H]6[C@H]7CN(c8cc9c(cc8F)C(=O)N(C8CCC(=O)NC8=O)C9=O)C[C@@H]67)C5)C4)nn3)CC2)cc1Cl (some centres unmarked) , give the reported Dmax.
> 80%

For the compound shown here, N#Cc1ccc(O[C@H]2CC[C@H](NC(=O)c3ccc(N4CC5CC4CN5C[C@H]4[C@@H]5CN(c6cc7c(cc6F)C(=O)N(C6CCC(=O)NC6=O)C7=O)C[C@@H]54)nn3)CC2)cc1Cl (some centres unmarked) , give the reported Dmax.
40 to 60%

For the compound shown here, N#Cc1ccc(OC2CCC(NC(=O)c3cnc(N4CCC(CN5CC6(CCN(c7cc8c(cc7F)C(=O)N(C7CCC(=O)NC7=O)C8=O)CC6)C5)CC4)cn3)CC2)cc1Cl (centres unmarked) , give the reported Dmax.
> 80%

For the compound shown here, C[C@H]1CN(c2ccc(C(=O)N[C@H]3CC[C@H](Oc4ccc(C#N)c(Cl)c4)CC3)nn2)CCN1C[C@H]1[C@@H]2CN(c3cc4c(cc3F)C(=O)N(C3CCC(=O)NC3=O)C4=O)C[C@@H]21 (some centres unmarked) , give the reported Dmax.
> 80%

* * *

Please provide measured pIC50 for the entries that follow.
System: LNCaP/AR cells
ASSAY_PROCEDURE: Inhibition of proliferation of LNCaP/AR prostate cancer cells (CCK-8)
Assay type: cell-based
RECORDED_CONDITIONS: LNCaP/AR, 144 h
pIC50: −log10 of the molar value.

// map N#Cc1ccc(O[C@H]2CC[C@H](NC(=O)c3ccc(N4CCC(NC5CCN(c6cc7c(cc6F)C(=O)N(C6CCC(=O)NC6=O)C7=O)CC5)CC4)cc3)CC2)cc1Cl (some centres unmarked) to recorded pIC50 (system: LNCaP/AR cells)
6.00 to 6.30

// map CC(=O)O[C@@H]1C[C@@H](C(=O)N[C@@H](C)c2ccc(-c3scnc3C)cc2)N(C(=O)[C@@H](NC(=O)CN2CCC(CN3CCN(c4ccc(C(=O)NC5C[C@@]6(C)O[C@]5(C)[C@@H]5C(=O)N(c7ccc(C#N)c(Cl)c7)C(=O)[C@@H]56)cn4)CC3)CC2)C(C)(C)C)C1 (some centres unmarked) to recorded pIC50 (system: LNCaP/AR cells)
> 7.00
